target.of.assay: T1, membrane-bound B Lymphocyte Stimulator on U937 plasma membrane preparations (human, UniProt Q9Y275 1-285)
T1 construct: Natural protein in plasma membrane fractions of the human cell line U937 coated on ELISA plates; also called U937 plasma membranes; U937 membranes
experimental.details: phage ELISA

>  <binder>
I082A02 (scFv) scFv: QVQLVQSGAEVKEPGASVKISCEASGYTFTNNFIDWVRQAPGQGLEWMGTISGSTGNTYYKQGFQGRVTMTRDTATSTAYLEVRGLTSEDTAIYFCARPAASSRGPKDAFDIWGQGTLVTVSSGGGGSGGGGSGGGGSQSVLTQPPSVSAAPGQKVTISCSGSTSNIGNNYVSWYQQHPGKAPKLMIYDVSKRPSGVPDRFSGSKSGNSASLDISGLQSEDEADYYCAAWDDSLSEFLFGTGTKLTVLG

>  <binding result>
binds

$$$$
>  <binder>
I006D08 (scFv) scFv: QVQLQQSGAEVKKPGSSVRVSCKASGGTFNNNAINWVRQAPGQGLEWMGGIIPMFGTAKYSQNFQGRVAITADESTSTASMELSSLRSEDTAVYYCARSRDLLLFPHYGMDVWGRGTMVTVSSGGGGSGGGGSGGGGSAFSSELTQDPAVSVALGQTVRVTCQGDSLRSYYASWYQQKPGQAPVLVIYGKNNRPSGIPDRFSGSSSGNTASLTITGAQAEDEADYYCNSRDSSGNHWVFGGGTELTVLG

>  <binding result>
binds

$$$$
